Species on record: Rattus norvegicus
test_summary: Inhibition of protein tyrosine phosphatase (PTP) activity in rat liver endosome insulin receptor (IR) dephosphorylation assay at 1 mM
observation_type: inhibition (%)
# value in %; strip the unit string

                                   compound  measured
0                           O=I(=O)c1ccccc1        88
1                        Cc1ccc(I(=O)=O)cc1        47
2  CC(=O)OI1(OC(C)=O)(OC(C)=O)OC(=O)c2ccccc21        69

Please fill in: inhibition reported for O=[N+]([O-])c1ccc(I(=O)=O)cc1 = 90

The measured inhibition associated with CC(C)(C)OOI1OC(=O)c2ccccc21 reads 78

// provenance: ChEMBL document CHEMBL1131920
